assay-system: FGFR1c, P11362
Sequence (P11362 22-822): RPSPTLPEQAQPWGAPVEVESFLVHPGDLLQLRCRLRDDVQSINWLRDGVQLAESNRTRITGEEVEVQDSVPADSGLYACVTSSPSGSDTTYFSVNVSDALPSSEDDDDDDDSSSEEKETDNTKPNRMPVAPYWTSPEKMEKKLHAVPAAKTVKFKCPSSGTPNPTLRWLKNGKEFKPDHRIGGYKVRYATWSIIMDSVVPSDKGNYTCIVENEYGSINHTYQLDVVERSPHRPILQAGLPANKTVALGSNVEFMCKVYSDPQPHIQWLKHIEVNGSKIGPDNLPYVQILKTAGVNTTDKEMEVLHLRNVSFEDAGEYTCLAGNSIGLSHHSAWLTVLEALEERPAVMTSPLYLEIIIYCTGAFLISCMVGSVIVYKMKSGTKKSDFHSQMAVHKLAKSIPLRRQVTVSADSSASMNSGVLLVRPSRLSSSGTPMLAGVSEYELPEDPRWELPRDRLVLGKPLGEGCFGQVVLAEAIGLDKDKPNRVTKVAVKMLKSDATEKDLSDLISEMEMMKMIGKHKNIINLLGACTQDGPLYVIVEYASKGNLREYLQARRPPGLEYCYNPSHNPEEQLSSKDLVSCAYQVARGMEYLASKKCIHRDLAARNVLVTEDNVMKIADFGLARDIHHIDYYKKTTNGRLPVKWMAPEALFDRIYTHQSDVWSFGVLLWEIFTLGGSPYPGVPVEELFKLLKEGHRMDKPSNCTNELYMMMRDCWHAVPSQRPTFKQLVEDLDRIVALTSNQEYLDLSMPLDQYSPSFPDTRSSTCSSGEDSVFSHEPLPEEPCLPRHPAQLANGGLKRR
experiment-summary: cell-based or functional assay
measurement-type: EC50(nM), dual-luciferase reporter gene assay, iLite FGF21 assay ready cells
Report only the number, with the unit nM understood.

See these solved cases before continuing.
Task: Query: EC50(nM), dual-luciferase reporter gene assay, iLite FGF21 assay ready cells; subject: Compound 5.10, Q9NSA1 29-209 (ligand, here or on the partner: Cys 46 (D46C) carries the albumin-binding agent of Example 2.3, C20 Dicarboxylic Acid-AEEA-gGlu-gGlu-Lys(bromoacetyl)-COOH (bromine displaced by the thiol)) HPIPDSSPLLQFGGQVRQRYLYTDDAQQTEAHLEIREDGTVGGAACQSPESLLQLKALKPGVIQILGVKTSRFLCQRPDGALYGSLHFDPEACSFRERLLEDGYNVYQSEAHGLPLHLPGNKSPHRDPAPRGPARFLPLPGLPPAPPEPPGILAPQPPDVGSSDPLSMVGGSQGRSPSYES
Result: 2.69

Task: Query: EC50(nM), dual-luciferase reporter gene assay, iLite FGF21 assay ready cells; subject: Compound 5.12, Q9NSA1 29-209 (ligand, here or on the partner: Cys 125 (H125C) carries the albumin-binding agent of Example 2.3, C20 Dicarboxylic Acid-AEEA-gGlu-gGlu-Lys(bromoacetyl)-COOH (bromine displaced by the thiol)) HPIPDSSPLLQFGGQVRQRYLYTDDAQQTEAHLEIREDGTVGGAADQSPESLLQLKALKPGVIQILGVKTSRFLCQRPDGALYGSLHFDPEACSFRERLLEDGYNVYQSEAHGLPLHLPGNKSPCRDPAPRGPARFLPLPGLPPAPPEPPGILAPQPPDVGSSDPLSMVGGSQGRSPSYES
Result: 1.4

Task: Query: EC50(nM), dual-luciferase reporter gene assay, iLite FGF21 assay ready cells; subject: Human mature FGF21 mutant K122C (FGF21K122C), Q9NSA1 29-209 (ligand) HPIPDSSPLLQFGGQVRQRYLYTDDAQQTEAHLEIREDGTVGGAADQSPESLLQLKALKPGVIQILGVKTSRFLCQRPDGALYGSLHFDPEACSFRERLLEDGYNVYQSEAHGLPLHLPGNCSPHRDPAPRGPARFLPLPGLPPAPPEPPGILAPQPPDVGSSDPLSMVGGSQGRSPSYES
Result: 0.3

***
Task: Query: EC50(nM), dual-luciferase reporter gene assay, iLite FGF21 assay ready cells; subject: Compound 5.7, Q9NSA1 29-209 (ligand, here or on the partner: Cys 46 (D46C) carries the albumin-binding agent of Example 2.2, C18 Dicarboxylic Acid-gGlu-AEEA-AEEA-Lys(bromoacetyl)-COOH (bromine displaced by the thiol)) HPIPDSSPLLQFGGQVRQRYLYTDDAQQTEAHLEIREDGTVGGAACQSPESLLQLKALKPGVIQILGVKTSRFLCQRPDGALYGSLHFDPEACSFRERLLEDGYNVYQSEAHGLPLHLPGNKSPHRDPAPRGPARFLPLPGLPPAPPEPPGILAPQPPDVGSSDPLSMVGGSQGRSPSYES
Result: 1.06

Task: Query: EC50(nM), dual-luciferase reporter gene assay, iLite FGF21 assay ready cells; subject: Human mature FGF21 mutant D38C (FGF21D38C), Q9NSA1 29-209 (ligand) HPIPDSSPLLQFGGQVRQRYLYTDDAQQTEAHLEIRECGTVGGAADQSPESLLQLKALKPGVIQILGVKTSRFLCQRPDGALYGSLHFDPEACSFRERLLEDGYNVYQSEAHGLPLHLPGNKSPHRDPAPRGPARFLPLPGLPPAPPEPPGILAPQPPDVGSSDPLSMVGGSQGRSPSYES
Result: 1

Task: Query: EC50(nM), dual-luciferase reporter gene assay, iLite FGF21 assay ready cells; subject: Compound 5.11, Q9NSA1 29-209 (ligand, here or on the partner: Cys 122 (K122C) carries the albumin-binding agent of Example 2.3, C20 Dicarboxylic Acid-AEEA-gGlu-gGlu-Lys(bromoacetyl)-COOH (bromine displaced by the thiol)) HPIPDSSPLLQFGGQVRQRYLYTDDAQQTEAHLEIREDGTVGGAADQSPESLLQLKALKPGVIQILGVKTSRFLCQRPDGALYGSLHFDPEACSFRERLLEDGYNVYQSEAHGLPLHLPGNCSPHRDPAPRGPARFLPLPGLPPAPPEPPGILAPQPPDVGSSDPLSMVGGSQGRSPSYES
Result: 2.09
